test system: 616215-338-R-J1-PDC complex spheroid viability; assay: Anticancer human tumor 616215-338-R-J1-PDC patient-derived colon adenocarcinoma cell line growth inhibition [POLQ]; settings: second compound 10 µM; first compound 0.1 µM; stronger effect = lower value
measurement type: viability, T/C (%)
Entry rule: numbers only, all in %.

Would you please look over these solved cases?
INSERT INTO measurements (molecule, test_system, recorded_result) VALUES
  ('CC1COCCN1c1cc(C2(O)CC3CCC(C2)O3)c2cnn(-c3ccn[nH]3)c2n1 (stereo not given) + COC1C(OC(N)=O)C(O)C(Oc2ccc3c(O)c(NC(=O)c4ccc(O)c(CC=C(C)C)c4)c(=O)oc3c2C)OC1(C)C', '616215-338-R-J1-PDC complex spheroid viability', 79.3),
  ('C=CC(=O)N1CCN(c2nc(=O)n(-c3c(C)ccnc3C(C)C)c3nc(-c4c(O)cccc4F)c(F)cc23)C(C)C1 (stereo not given) + COC1C(OC(N)=O)C(O)C(Oc2ccc3c(O)c(NC(=O)c4ccc(O)c(CC=C(C)C)c4)c(=O)oc3c2C)OC1(C)C', '616215-338-R-J1-PDC complex spheroid viability', 94.3),
  ('CC1COCCN1c1cc(-c2ccnn2C)c2ccnc(-c3ccn[nH]3)c2n1 (stereo not given) + COC1C(OC(N)=O)C(O)C(Oc2ccc3c(O)c(NC(=O)c4ccc(O)c(CC=C(C)C)c4)c(=O)oc3c2C)OC1(C)C', '616215-338-R-J1-PDC complex spheroid viability', 86.9);

[in] What does the data say about its viability, T/C? Entry: COc1cccc2c1C(=O)c1c(O)c3c(c(O)c1C2=O)CC(O)(C(=O)CO)CC3OC1CC(N)C(O)C(C)O1 (stereo not given) + COC1C(OC(N)=O)C(O)C(Oc2ccc3c(O)c(NC(=O)c4ccc(O)c(CC=C(C)C)c4)c(=O)oc3c2C)OC1(C)C
[out] 102

[in] What does the data say about its viability, T/C? Entry: COc1ccc([C@@H](O)c2cc(-c3ncnc4cc(N5CCOCC5)ccc34)c(F)cc2Cl)nn1 + Cc1cccc(N(C)C(=O)C2C(O)CCN2c2nc(C)cc(C(F)(F)F)c2C#N)c1
[out] 100

====

test system: 616215-338-R-J1-PDC complex spheroid viability; assay: Anticancer human tumor 616215-338-R-J1-PDC cell line growth inhibition [POLQ]; details: second compound 0.0316 µM; first compound 3.16 µM; stronger effect = lower value;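 also: spheroids exposed to compounds for one week before readout; percent viability relative to DMSO vehicle wells taken as 100%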
// returns No unless viability, T/C is strictly below 60%, in which case Yes

See these solved cases before continuing.
INSERT INTO assay_data (compound, label_value) VALUES
  ('CC(C)n1c(=O)n(C)c2cnc3cc(F)c(-c4ccc(OCCCN5CCCCC5)nc4)cc3c21 + Nc1ccc(C#CCN(C(=O)Cc2ncc(C(F)(F)F)cc2C(F)(F)F)c2ccc(F)cc2)nn1', 'No'),
  ('COc1cccc2c1C(=O)c1c(O)c3c(c(O)c1C2=O)CC(O)(C(=O)CO)CC3OC1CC(N)C(O)C(C)O1 (stereo not given) + Cc1cccc(N(C)C(=O)C2C(O)CCN2c2nc(C)cc(C(F)(F)F)c2C#N)c1', 'Yes');

Please look at the following compound next.
[in] viability, T/C strictly < 60% for this compound? CCc1cc2c(N3CCc4c(cc(Cn5ccnc5)cc4-c4cn(C)nc4C(F)(F)F)C3=O)ccnc2c(OC)n1 + Nc1ccc(C#CCN(C(=O)Cc2ncc(C(F)(F)F)cc2C(F)(F)F)c2ccc(F)cc2)nn1
[out] Yes

====

System: 616215-338-R-J1-PDC complex spheroid viability
Test: Anticancer human tumor 616215-338-R-J1-PDC cell line growth inhibition [POLQ];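 also: spheroids exposed to compounds for one week before readout; percent viability relative to DMSO vehicle wells taken as 100%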
Conditions: second compound 10 µM; first compound 0.1 µM; stronger effect = lower value
Experimental: Multicellular complex tumor spheroid response to Polymerase (POL) inhibitors (novobiocin, ART-558, RP6685) in combination with a variety of drugs and investigational agents in selected tumor cell lines The POL inhibitors (novobiocin, ART-558, and RP6685) were evaluated both individually and in combination with standard of care and investigational anticancer small molecules within a complex spheroid model of solid tumors. . […]
measurement type: viability, T/C (%)
Entry rule: numbers only, all in %.

INSERT INTO measurements (compound, units_symbol, recorded_result) VALUES
  ('CC1COCCN1c1cc(C2(O)CC3CCC(C2)O3)c2cnn(-c3ccn[nH]3)c2n1 (stereo not given) + Nc1ccc(C#CCN(C(=O)Cc2ncc(C(F)(F)F)cc2C(F)(F)F)c2ccc(F)cc2)nn1', '%', 56.2),
  ('CCCS(=O)(=O)Nc1ccc(F)c(C(=O)c2c[nH]c3ncc(-c4ccc(Cl)cc4)cc23)c1F + Nc1ccc(C#CCN(C(=O)Cc2ncc(C(F)(F)F)cc2C(F)(F)F)c2ccc(F)cc2)nn1', '%', 86.3),
  ('CCc1c2c(nc3ccc(O)cc13)-c1cc3c(c(=O)n1C2)COC(=O)[C@]3(O)CC + COC1C(OC(N)=O)C(O)C(Oc2ccc3c(O)c(NC(=O)c4ccc(O)c(CC=C(C)C)c4)c(=O)oc3c2C)OC1(C)C', '%', 32.5),
  ('COc1cc(C2c3cc4c(cc3C(OC3OC5COC(C)OC5C(O)C3O)C3COC(=O)C23)OCO4)cc(OC)c1O (stereo not given) + Nc1ccc(C#CCN(C(=O)Cc2ncc(C(F)(F)F)cc2C(F)(F)F)c2ccc(F)cc2)nn1', '%', 64),
  ('C#Cc1c(F)ccc2cc(O)cc(-c3ncc4c(N5CC6CCC(C5)N6)nc(OCC56CCCN5CC(F)C6)nc4c3F)c12 (stereo not given) + COC1C(OC(N)=O)C(O)C(Oc2ccc3c(O)c(NC(=O)c4ccc(O)c(CC=C(C)C)c4)c(=O)oc3c2C)OC1(C)C', '%', 103);

[in] What does the data say about its viability, T/C? Entry: CCCS(=O)(=O)Nc1ccc(F)c(C(=O)c2c[nH]c3ncc(-c4ccc(Cl)cc4)cc23)c1F + COC1C(OC(N)=O)C(O)C(Oc2ccc3c(O)c(NC(=O)c4ccc(O)c(CC=C(C)C)c4)c(=O)oc3c2C)OC1(C)C
[out] 97.8

====

Reported viability, T/C is given for each of the following compounds.
system: 616215-338-R-J1-PDC complex spheroid viability; assay: Anticancer human tumor 616215-338-R-J1-PDC cell line growth inhibition [POLQ]; conditions: second compound 0.0316 µM; first compound 0.316 µM; stronger effect = lower value;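 also: spheroids exposed to compounds for one week before readout; percent viability relative to DMSO vehicle wells taken as 100%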
Entry rule: numbers only, all in %.

INSERT INTO assay_data (compound, recorded_result) VALUES
  ('O=C(Nc1ccc(O)c(NS(=O)(=O)c2ccc(F)cc2)c1)c1ccc(-c2ccccc2)cc1 + Cc1cccc(N(C)C(=O)C2C(O)CCN2c2nc(C)cc(C(F)(F)F)c2C#N)c1', 103),
  ('O=c1[nH]cc(F)c(=O)[nH]1 + Cc1cccc(N(C)C(=O)C2C(O)CCN2c2nc(C)cc(C(F)(F)F)c2C#N)c1', 69.8),
  ('COc1ccc([C@@H](O)c2cc(-c3ncnc4cc(N5CCOCC5)ccc34)c(F)cc2Cl)nn1 + Cc1cccc(N(C)C(=O)C2C(O)CCN2c2nc(C)cc(C(F)(F)F)c2C#N)c1', 94.8),
  ('Nc1ccn(C2OC(CO)C(O)C2(F)F)c(=O)n1 (stereo unspecified) + Nc1ccc(C#CCN(C(=O)Cc2ncc(C(F)(F)F)cc2C(F)(F)F)c2ccc(F)cc2)nn1', 10.8),
  ('CCCS(=O)(=O)Nc1ccc(F)c(C(=O)c2c[nH]c3ncc(-c4ccc(Cl)cc4)cc23)c1F + COC1C(OC(N)=O)C(O)C(Oc2ccc3c(O)c(NC(=O)c4ccc(O)c(CC=C(C)C)c4)c(=O)oc3c2C)OC1(C)C', 100);

[in] What does the data say about its viability, T/C? Entry: CCc1c2c(nc3ccc(O)cc13)-c1cc3c(c(=O)n1C2)COC(=O)[C@]3(O)CC + COC1C(OC(N)=O)C(O)C(Oc2ccc3c(O)c(NC(=O)c4ccc(O)c(CC=C(C)C)c4)c(=O)oc3c2C)OC1(C)C
[out] 30.4

====

Reported viability, T/C is given for each of the following molecules.
test system: 616215-338-R-J1-PDC complex spheroid viability; assay: Anticancer human tumor 616215-338-R-J1-PDC cell line growth inhibition [POLQ]; details: second compound 0.0316 µM; first compound 1 µM; stronger effect = lower value;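 also: spheroids exposed to compounds for one week before readout; percent viability relative to DMSO vehicle wells taken as 100%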
Entry rule: numbers only, all in %.

INSERT INTO results (molecule, recorded_result) VALUES
  ('COc1ccc([C@@H](O)c2cc(-c3ncnc4cc(N5CCOCC5)ccc34)c(F)cc2Cl)nn1 + Nc1ccc(C#CCN(C(=O)Cc2ncc(C(F)(F)F)cc2C(F)(F)F)c2ccc(F)cc2)nn1', 93),
  ('COc1cc(C2c3cc4c(cc3C(OC3OC5COC(C)OC5C(O)C3O)C3COC(=O)C23)OCO4)cc(OC)c1O (stereo not drawn) + Nc1ccc(C#CCN(C(=O)Cc2ncc(C(F)(F)F)cc2C(F)(F)F)c2ccc(F)cc2)nn1', 45.8);

Consider the additional molecule presented here.
[in] What does the data say about its viability, T/C? Entry: CCc1c2c(nc3ccc(O)cc13)-c1cc3c(c(=O)n1C2)COC(=O)[C@]3(O)CC + COC1C(OC(N)=O)C(O)C(Oc2ccc3c(O)c(NC(=O)c4ccc(O)c(CC=C(C)C)c4)c(=O)oc3c2C)OC1(C)C
[out] 20.2
